Test system: HL-60(TB) leukemia
Experiment: NCI-60 one-dose screen, 48 h (100 = growth as untreated, 0 = no growth, -100 = all killed)
Conditions: 10 µM unless noted
Compounds without any hit were thinned out: in the full panel of roughly 83,000, 20% have a hit. Calls of active or inactive are those of the source. The calls were made as follows: active = growth percent below 10; inactive = the rest.
READOUT: growth

Use the examples below as a reference point.
>  <COMPOUND>
COc1ccc(-c2cn(-c3cc(OC)c(OC)c(OC)c3)c(=O)n2C(C)=O)cc1

>  <growth>
32.2% (inactive)

$$$$
>  <COMPOUND>
COc1ccc(/C(=C/c2cc(OC)c(OC)cc2[N+](=O)[O-])C(=O)O)cc1

>  <growth>
98.5% (inactive)

$$$$
>  <COMPOUND>
Nc1ccc(N=Nc2ccc(O)cc2)c(N)n1

>  <growth>
37% (inactive)

$$$$

Consider Cc1cc(N(CCCNc2ccnc3cc(Cl)ccc23)Cc2ccco2)nc(N2CCOCC2)n1 . Its measured growth is 45.5% (inactive)

Consider COc1ccc(Cn2c(Br)c3c(c2-c2cc(OC)c(OC)c(OC)c2)CCc2sc(NC(C)=O)nc2-3)cc1 . Its measured growth is 15.2% (inactive)
